The reported measurements were obtained from the supplement of paper PMC10567573.

B1: TOR1AIP2 (parent)
chain: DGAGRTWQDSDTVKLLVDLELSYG

variants of: B1; test: protein stability index of a GFP-peptide fusion (GPS, HEK-293T) (PSI 1-6); higher = more stable; conditions: c terminus: a fixed tail appended;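 note: lentivirally expressed fusions sorted by FACS into six bins by GFP to DsRed ratio, PSI derived from sequencing read proportions per bin multiplied by bin number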
// f strictly below 2 in protein stability index; t otherwise

{"Changes": "G4R", "Class name": "f"}
{"Changes": "D1K", "Class name": "t"}
{"Changes": "D11E", "Class name": "t"}
{"Changes": "V17R", "Class name": "t"}
{"Changes": "D11N", "Class name": "t"}
{"Changes": "Q8G", "Class name": "t"}
{"Changes": "G4Y", "Class name": "t"}
{"Changes": "V13F", "Class name": "f"}
{"Changes": "T12S", "Class name": "t"}
{"Changes": "K14H", "Class name": "f"}

(Q) Kindly determine if protein stability index recorded for Q8E is above or exactly 2.
(A) t

(Q) Likewise for Q8K ?
(A) f

(Q) And S22N ?
(A) t

(Q) What would you report for T12W ?
(A) f

(Q) Queued: L16V
(A) f

(Q) // next record G4H
(A) f

(Q) What do you get for E20F ?
(A) t

(Q) Next up: G24I
(A) t

(Q) Try this variant next: T6I
(A) t

(Q) Here is the next variant: G2L
(A) f

(Q) Would you kindly repeat that for S22G ?
(A) t

(Q) Queued: S10G
(A) f

(Q) Now this one: G4P
(A) t
